assay-summary: Cytotoxicity against human lymphocytes after 48 hrs by trypan blue method
Format: cell-based
conditions-used: Lymphocyte

smiles-record	display-unit	IC50
CC1(C)OC(=O)C2(C(=O)O1)[C@@H](c1ccc(-c3ccc(O)cc3)cc1)CC(=O)C[C@H]2c1ccccc1	µM	172

====

Below, each of the compounds is paired with its reported Activity value.
System: K562
assay-summary: Cell cycle arrest in human K562 cells by accumulation at sub-G1 (apoptotic) phase at 30 uM after 72 hrs using propidium iodide staining by FACS
Type: functional

smiles-record	Activity / %
CC1(C)OC(=O)C2(C(=O)O1)[C@@H](c1ccc(-c3ccc(-c4ccc(O)cc4)cc3)cc1)CC(=O)C[C@H]2c1ccccc1	2
CC1(C)OC(=O)C2(C(=O)O1)[C@@H](c1ccc(-c3ccc(O)cc3)cc1)CC(=O)C[C@H]2c1ccccc1	47
O=C1C[C@H](c2ccc(-c3ccc(CO)cc3)cc2)C2(C(=O)c3ccccc3C2=O)[C@H](c2ccccc2)C1	11
O=C1C[C@H](c2ccc(-c3ccc(O)cc3)cc2)C2(C(=O)c3ccccc3C2=O)[C@H](c2ccccc2)C1	55

====

Below, each of the compounds is paired with its reported Activity value.
Tested on: K562
assay-summary: Cell cycle arrest in human K562 cells by accumulation at S phase at 30 uM after 72 hrs using propidium iodide staining by FACS
Assay type: functional
recorded-endpoint: Activity (%)

smiles-record	display-unit	test-value
O=C1C[C@H](c2ccc(-c3ccc(CO)cc3)cc2)C2(C(=O)c3ccccc3C2=O)[C@H](c2ccccc2)C1	%	32
CC1(C)OC(=O)C2(C(=O)O1)[C@@H](c1ccc(-c3ccc(O)cc3)cc1)CC(=O)C[C@H]2c1ccccc1	%	54
CC1(C)OC(=O)C2(C(=O)O1)[C@@H](c1ccc(-c3ccc(-c4ccc(O)cc4)cc3)cc1)CC(=O)C[C@H]2c1ccccc1	%	20
O=C1C[C@H](c2ccc(-c3ccc(O)cc3)cc2)C2(C(=O)c3ccccc3C2=O)[C@H](c2ccccc2)C1	%	61

====

Below, each of the compounds is paired with its reported AC50 value.
Tested on: HL-60
assay-summary: Induction of apoptosis in human HL60 cells assessed as morphological changes after 48 hrs by annexin V assay
Assay type: functional, cell-based
conditions-used: HL-60, 48 h, read-out: AC50

smiles-record	sign	AC50 / µM
O=C1C[C@H](c2ccc(-c3ccc(CO)cc3)cc2)C2(C(=O)c3ccccc3C2=O)[C@H](c2ccccc2)C1	=	12
OCc1ccc(-c2cc(O)cc(O)c2)cc1	>	80
CC1(C)OC(=O)C2(C(=O)O1)[C@@H](c1ccc(-c3ccc(-c4ccc(O)cc4)cc3)cc1)CC(=O)C[C@H]2c1ccccc1	=	32
O=C1C[C@H](c2ccc(-c3ccc(O)cc3)cc2)C2(C(=O)c3ccccc3C2=O)[C@H](c2ccccc2)C1	=	11

====

Test system: K562
assay-summary: Cell cycle arrest in human K562 cells by accumulation at sub-G1 (apoptotic) phase at 30 uM after 48 hrs using propidium iodide staining by FACS
Assay type: functional
recorded-endpoint: Activity (%)

smiles-record	recorded-endpoint	display-unit	test-value
CC1(C)OC(=O)C2(C(=O)O1)[C@@H](c1ccc(-c3ccc(O)cc3)cc1)CC(=O)C[C@H]2c1ccccc1	Activity	%	46
O=C1C[C@H](c2ccc(-c3ccc(O)cc3)cc2)C2(C(=O)c3ccccc3C2=O)[C@H](c2ccccc2)C1	Activity	%	53
CC1(C)OC(=O)C2(C(=O)O1)[C@@H](c1ccc(-c3ccc(-c4ccc(O)cc4)cc3)cc1)CC(=O)C[C@H]2c1ccccc1	Activity	%	2
O=C1C[C@H](c2ccc(-c3ccc(CO)cc3)cc2)C2(C(=O)c3ccccc3C2=O)[C@H](c2ccccc2)C1	Activity	%	6

====

System: K562
assay-summary: Cell cycle arrest in human K562 cells by accumulation at G2/M phase at 30 uM after 24 hrs using propidium iodide staining by FACS
Assay type: functional
Below, each of the molecules is paired with its reported Activity value.

smiles-record	Activity, %
CC1(C)OC(=O)C2(C(=O)O1)[C@@H](c1ccc(-c3ccc(O)cc3)cc1)CC(=O)C[C@H]2c1ccccc1	11
O=C1C[C@H](c2ccc(-c3ccc(CO)cc3)cc2)C2(C(=O)c3ccccc3C2=O)[C@H](c2ccccc2)C1	19
CC1(C)OC(=O)C2(C(=O)O1)[C@@H](c1ccc(-c3ccc(-c4ccc(O)cc4)cc3)cc1)CC(=O)C[C@H]2c1ccccc1	11
O=C1C[C@H](c2ccc(-c3ccc(O)cc3)cc2)C2(C(=O)c3ccccc3C2=O)[C@H](c2ccccc2)C1	17
